Recorded EC50 by entry
system.name: Melanocyte-stimulating hormone receptor (Homo sapiens, UniProt Q01726)
Sequence (Q01726 whole entry): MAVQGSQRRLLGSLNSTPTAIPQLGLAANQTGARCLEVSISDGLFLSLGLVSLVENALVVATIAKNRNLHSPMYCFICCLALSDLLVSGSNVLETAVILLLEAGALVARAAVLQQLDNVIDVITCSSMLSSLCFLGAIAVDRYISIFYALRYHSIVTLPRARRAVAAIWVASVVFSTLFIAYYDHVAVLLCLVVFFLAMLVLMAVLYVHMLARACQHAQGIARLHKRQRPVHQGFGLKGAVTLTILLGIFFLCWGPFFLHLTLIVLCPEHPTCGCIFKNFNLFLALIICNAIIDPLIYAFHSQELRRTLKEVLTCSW
assay.summary: Agonist activity at human melanocortin receptor 1b expressed in CHO cells assessed as cAMP accumulation
Assay type: functional, cell-based

Please review the entries below; each comes with its answer.
CCCC[C@H](NC(C)=O)C(=O)N[C@H]1CC(=O)NCCCC[C@@H](C(N)=O)NC(=O)[C@H](Cc2c[nH]c3ccccc23)NC(=O)[C@@H]2CCCN2C(=O)[C@@H](Cc2ccc(-c3ccccc3)cc2)NC(=O)[C@@H]2CC3CCCCC3N2C1=O (stereo partly drawn) = > 2500 nM
CCCC[C@H](NC(C)=O)C(=O)N[C@H]1CC(=O)NCCCC[C@@H](C(N)=O)NC(=O)[C@H](Cc2c[nH]c3ccccc23)NC(=O)[C@@H]2CCCCN2C(=O)[C@@H](Cc2ccc(-c3ccccc3)cc2)NC(=O)[C@H](C2CCCCC2)NC1=O = > 500 nM
CCCC[C@H](NC(C)=O)C(=O)N[C@H]1CC(=O)NCCCC[C@@H](C(N)=O)NC(=O)[C@H](Cc2c[nH]c3ccccc23)NC(=O)[C@@H]2CCCCN2C(=O)[C@@H](Cc2ccc(-c3ccccc3)cc2)NC(=O)[C@@H]2Cc3ccccc3CN2C1=O = 130 nM (agonist)

### Prompt Data request, read-out EC50, for "CCCC[C@H](NC(C)=O)C(=O)N[C@H]1CC(=O)NCCCC[C@@H](C(N)=O)NC(=O)[C@H](Cc2c[nH]c3ccccc23)NC(=O)[C@@H]2CCCN2C(=O)[C@@H](Cc2ccc(Cl)cc2)NC(=O)[C@H](Cc2c[nH]cn2)NC1=O"
### Response 63 nM (agonist)

### Prompt Name the reported EC50 value associated with the compound "CCCC[C@H](NC(C)=O)C(=O)N[C@H]1CC(=O)NCCCC[C@@H](C(N)=O)NC(=O)[C@H](Cc2c[nH]c3ccccc23)NC(=O)[C@@H]2CCCN2C(=O)[C@H](Cc2ccccc2)NC(=O)[C@H](Cc2cnc[nH]2)NC1=O"
### Response > 1000 nM

### Prompt What value of EC50 has been recorded for this entry: "CCCC[C@H](NC(C)=O)C(=O)N[C@H]1CC(=O)NCCCC[C@@H](C(N)=O)NC(=O)[C@H](Cc2c[nH]c3ccccc23)NC(=O)[C@@H]2CCCCN2C(=O)[C@@H](Cc2ccc(-c3ccccc3)cc2)NC(=O)[C@@H]2CCCN2C1=O"
### Response 28 nM (agonist)

### Prompt Consider the compound shown here: "CCCC[C@H](NC(C)=O)C(=O)N[C@H]1CC(=O)NCCCC[C@@H](C(N)=O)NC(=O)[C@H](Cc2c[nH]c3ccccc23)NC(=O)[C@@H]2CCCN2C(=O)[C@@H](Cc2ccc(-c3ccccc3)cc2)NC(=O)[C@H](Cc2c[nH]cn2)NC1=O" What is its recorded EC50?
### Response 5.3 nM (agonist)

### Prompt Given the compound "CCCC[C@H](NC(C)=O)C(=O)N[C@H]1CC(=O)NCCCC[C@@H](C(N)=O)NC(=O)[C@H](Cc2c[nH]c3ccccc23)NC(=O)[C@@H]2CCCCN2C(=O)[C@@H](Cc2ccc(-c3ccccc3)cc2)NC(=O)[C@H](Cc2c[nH]cn2)NC1=O" , what is its reported EC50?
### Response 3.3 nM (agonist)
